- System: CEM cells HIV-1 protection, formazan growth assay
- EXPERIMENTAL PROTOCOL: NCI AIDS Antiviral Assay
- CONDITIONS USED: measured here: growth of uninfected CEM cells
pIC50: −log10 of the molar value.
OBSERVABLE: pIC50

CC(C)N1CSC(=S)N(Cc2ccccc2)C1    4.49
COc1ccc2c(c1)CCC1=CC3(CCC12C)SCCS3 (configuration not stated)    4.99
NC(CS)=NC1CCCCC1    3.97
O=C(CC(=O)Nc1ccccc1Cl)NNC(c1cc(N=Nc2ccc(Br)cc2)ccc1O)P(O)O (configuration not stated)    5.88
COc1cc(/C=C/C(=O)OCCc2ccccc2)ccc1O    5.29
